- assay.target: T1, human MT1-MMP hemopexin domain (human, UniProt P50281 319-511)
- T1 construct: range 319-511; Secreted from HEK293 cells as soluble N-terminally His6-tagged protein; also called MT1-MMP hemopexin-like repeats; MMP14
- protocol.notes: FP competition, human MT1-MMP hemopexin domain; tracer not given
Numbered stars: 1 amine (or outer) side, 2 acyl side, 3 side chain; on linkers, the order of the positions; unused ones are H or OH. Bridge positions count the residues as written; N and C are the ends. Square brackets hold non-standard residues; d marks the D form. Ends that are not written are not given here. TBMB = c1c(C[*:1])cc(C[*:3])cc1C[*:2]
experimental.endpoint: pKd
Numbers only, as −log10 of the molar value.

Indicate its recorded pKd; the binder in question is Ac-CYNEF[dR]CEDFYDIC (linker 1-7-14 via TBMB; not fully specified (C-terminus)) [17-69-07-N120]
8.37

Where these numbers come from: patent US20180280525A1
